From: BindingDB's records for doi:10.1016/j.ejmech.2021.113764

Assay: Antagonist activity at PAR4 in human platelet-rich plasma assessed as inhibition of PAR4 AP AYPGKF-NH2-induced platelet aggregation by photo-turbidimetry assay
pIC50: −log10 of the molar value.
Short version: pIC50 at least 7 is Yes, less is No.

Answered examples (4):
{"columns": ["compound.structure.string", "classification"],
 "data": [
  ["Cc1cc(-c2ccc(Cl)cc2Cl)c2ncn(C)c(=O)c2c1", "No"],
  ["Cc1cc(-c2nc3c(s2)CCCC3)c2ncn(C)c(=O)c2c1", "Yes"],
  ["Cc1cc(-c2nc3c(Cl)cc(OCCNS(=O)(=O)c4ccc(C(F)(F)F)cc4)cc3s2)c2ncn(C)c(=O)c2c1", "Yes"],
  ["CCc1cc(-c2nc3c(Cl)cc(OC)cc3s2)c2ncn(C)c(=O)c2c1", "Yes"]
]}

Here is another compound to look at.
Evaluate COc1cc(Cl)c2nc(-c3cc(C)cc4c(=O)n(C)cnc34)sc2c1 : pIC50 at minimum 7? Yes

---

So I've got a bunch of compounds here, and I need their log10(IC50) values.
Assay: Antagonist activity at PAR4 in ICR mouse platelet-rich plasma assessed as inhibition of PAR4 AP AYPGKF-NH2-induced platelet aggregation by photo-turbidimetry assay
All values: log10 IC50 [µM].

The following compounds have reported results that may help.
{"columns": ["compound.structure.string", "value.measured"],
 "data": [
  ["COCc1cc2ccc(OC)c(-c3nn4cc(C)nc4s3)c2o1", 1.00],
  ["COCc1cc2cc(C)cc(-c3nn4ccnc4s3)c2o1", 0.54],
  ["Cc1ccc(S(=O)(=O)NCCOc2cc(Cl)c3nc(-c4cc(C)cc5c(=O)n(C)cnc45)sc3c2)cc1", -0.28]
]}

Batch of 6 compounds: report log10(IC50) for each.
1. COCc1nc2cc(C)cc(-c3nn4cc(C)nc4s3)c2[nH]1
2. COCn1cnc2c(-c3nc4c(Cl)cc(OC)cc4s3)cc(C)cc2c1=O
3. CCOCn1cnc2c(-c3nc4c(Cl)cc(OC)cc4s3)cc(C)cc2c1=O
4. Cc1cc(-c2ccccc2F)c2ncn(C)c(=O)c2c1
5. CCOCn1cnc2c(-c3nc4c(s3)CCCC4)cc(C)cc2c1=O
6. CCc1cc(-c2nc3c(Cl)cc(OC)cc3s2)c2ncn(C)c(=O)c2c1

[0.50, 0.00, -0.19, 0.74, 0.68, -0.80]

---

Assay: Antagonist activity at PAR4 in ICR mouse platelet-rich plasma assessed as inhibition of PAR4 AP AYPGKF-NH2-induced platelet aggregation by photo-turbidimetry assay
parameter: IC50 (µM)
Numbers only, in µM.

{"columns": ["compound.structure.string", "parameter", "unit.of.measurement", "value.measured"],
 "data": [
  ["COCc1cc2cc(C)cc(-c3nn4cc(C)nc4s3)c2o1", "IC50", "µM", 4.82],
  ["Cc1cc(-c2nc3c(Cl)cc(OCCNS(=O)(=O)c4ccc(Cl)cc4Cl)cc3s2)c2ncn(C)c(=O)c2c1", "IC50", "µM", 0.95],
  ["C#CCn1cnc2c(-c3nc4c(F)cc(OC)cc4s3)cc(C)cc2c1=O", "IC50", "µM", 4.2],
  ["CCc1cc(-c2nc3c(s2)CCCC3)c2ncn(C)c(=O)c2c1", "IC50", "µM", 3.54],
  ["COc1cc(F)c2nc(-c3cc(C)cc4c(=O)n(C)cnc34)sc2c1", "IC50", "µM", 0.83],
  ["CCn1cnc2c(-c3nc4c(s3)CCCC4)cc(C)cc2c1=O", "IC50", "µM", 3.74],
  ["COc1cc(Cl)c2nc(-c3cccc4c(=O)n(C)cnc34)sc2c1", "IC50", "µM", 6.78],
  ["Cc1cc(-c2cc3ccccc3o2)c2ncn(C)c(=O)c2c1", "IC50", "µM", 4.26],
  ["CCCCc1cc(-c2nc3c(Cl)cc(OC)cc3s2)c2ncn(C)c(=O)c2c1", "IC50", "µM", 1.38],
  ["Cc1nn2cc(-c3cc4ccccc4o3)nc2s1", "IC50", "µM", 1.82]
]}

Your task in this section: give IC50 for each listed record.
1. Cc1cc(-c2nc3c(Cl)cc(OCCNS(=O)(=O)c4ccc(F)cc4)cc3s2)c2ncn(C)c(=O)c2c1
2. Cc1cc(-c2nc3c(s2)CCCC3)c2ncn(C)c(=O)c2c1
3. Cc1cc(-c2nc3c(Cl)cc(OCCNS(=O)(=O)c4ccccc4)cc3s2)c2ncn(C)c(=O)c2c1
4. COc1cc(F)c2nc(-c3cc(C)cc4c(=O)n(C(C)C)cnc34)sc2c1
5. COCc1cnc2c(-c3nc4c(Cl)cc(OC)cc4s3)cc(C)cc2n1

[8.22, 0.11, 2.52, 6.74, 0.79]
